measurement_label: melting point (°C)
Output spec: scalar in °C, unitless text.

[ask] Assign melting point to the following record: C/C=C(/C)C(C)C
[reply] -121

[ask] Assign melting point to the following record: CC(=O)Oc1ccc(C)c(C)c1
[reply] 22

[ask] Assign melting point to the following record: C[C@]12CCC(=O)C=C1CC[C@@H]1[C@@H]2CC[C@@]2(C)[C@H]1CC[C@]2(O)C(=O)CO
[reply] 215

[ask] Assign melting point to the following record: CCCCCCCCCOC(=O)c1ccc(N)cc1
[reply] 69

* * *

measurement_label: log10 vapour pressure (mmHg)
Field format: numeric only.

// below: answered compounds
CCC=CBr; 1.89
Cc1ccc(C=O)cc1; -0.602

[ask] Assign log10 vapour pressure (mmHg) to the following record: CCOP(=S)(OCC)SCSc1ccc(Cl)cc1
[reply] -6.52

[ask] Assign log10 vapour pressure (mmHg) to the following record: COC(=O)c1ccccc1O
[reply] -1.46

[ask] Assign log10 vapour pressure (mmHg) to the following record: COP(=O)(OC)OC(Br)C(Cl)(Cl)Br (stereo not drawn)
[reply] -3.7

[ask] Assign log10 vapour pressure (mmHg) to the following record: CCCCCCCCCCCCCCCCCCCCCCCCCC
[reply] -6.33

[ask] Assign log10 vapour pressure (mmHg) to the following record: Nc1ccc2c(c1)C(=O)c1ccccc1C2=O
[reply] -10.3

[ask] Assign log10 vapour pressure (mmHg) to the following record: ClCC(Br)CBr (stereo not drawn)
[reply] -0.237
